Data origin, for the record: PubChem BioAssay

# assay-info: inhibitors of larval lipid processing in zebrafish, primary screen, whole organism, PED6 fluorescence, gall bladder and intestine (AID 686);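 further: larvae 5 to 7 days old with five fish per well; signal comes from phospholipase A2 cleavage of quenched PED6 carried via bile; overnight exposure to compound and PED6 before scoring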
# conditions-used: Zebrafish larvae PED6 lipid processing, fluorescence scoring; screened at 20 µM (by protocol)
Activity calls are given as the source filed them.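 How the source made its calls: active means a full or partial loss of lipid-probe fluorescence in the fish gall bladder, intestine or both, judged by eye; inactive means no fluorescence loss, or compound toxic to the fish.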
Outcome (select one): active, inactive

Qu. # fetch the recorded call for Brc1ccc(-c2cnnc(N3CCCC3)n2)cc1 here
Ans. inactive

Qu. # fetch the recorded call for COn1c(SC2CCCCC2)nc2ccccc2c1=O here
Ans. inactive

Qu. # fetch the recorded call for COC(=O)/C(C#N)=C1/SC=C(C)N1c1ccccc1 here
Ans. inactive

Qu. # fetch the recorded call for CC1(C)Cc2c(c(N3CCOCC3)nc3sc4c(=O)[nH]cnc4c23)CS1 here
Ans. inactive

Qu. # fetch the recorded call for CCOc1ccc(N2C(=O)CC(N)C2=O)cc1 (stereo unspecified) here
Ans. inactive

Qu. # fetch the recorded call for Cc1ccc(CNC(=O)c2cc3c(=O)n4ccccc4nc3n(Cc3ccco3)c2=N)cc1 here
Ans. active

Qu. # fetch the recorded call for COc1ccc(OC)c(C2/C(=C(\O)c3ccc(OC)c(Cl)c3)C(=O)C(=O)N2CCN(C)C)c1 (stereo unspecified) here
Ans. inactive

Qu. # fetch the recorded call for O=C(NCc1ccccn1)c1ccc(=O)oc1 here
Ans. inactive

Qu. # fetch the recorded call for Cn1c(=O)c2c(nc(Oc3ccc4c(c3)OCO4)n2Cc2ccc(Br)cc2)n(C)c1=O here
Ans. inactive

Qu. # fetch the recorded call for OCCOCCNc1ncnc2c1cnn2-c1ccc(Cl)cc1 here
Ans. inactive

Qu. # fetch the recorded call for O=c1c2c3c(sc2n2cnnc2n1C1CCCCC1)CCC3 here
Ans. inactive

Qu. # fetch the recorded call for Cn1c(OCc2cccnc2)nc2c1c(=O)n(Cc1ccc(Br)cc1)c(=O)n2C here
Ans. inactive

Qu. # fetch the recorded call for Cc1c(C)n(C(=O)CSc2nccn2C)c2ccccc12 here
Ans. inactive

Qu. # fetch the recorded call for CC12CCC(=O)N1c1c(sc3nc(N4CCOCC4)c4c(c13)CCCC4)C(=O)N2 (stereo unspecified) here
Ans. inactive

Qu. # fetch the recorded call for CCSc1nc2sc3c(c2c2nnc(SCC(=O)NCc4ccco4)n12)CCCC3 here
Ans. inactive

Qu. # fetch the recorded call for CC(=O)N(Cc1ccccc1)c1ccc(C(=O)O)cc1 here
Ans. inactive

###

# assay-info: inhibitors of mutant huntingtin aggregation, primary screen, imaging, exon1htt(103Q)mCFP cells, high-content imaging (AID 483);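 further: compound exposure lasted 3 days before fixation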
# conditions-used: exon1htt(103Q)mCFP cell line, aggregate imaging, at 2 µM; stronger effect = higher value
readout-kind: inhibition of aggregation (%)
Reply with just the number (in %).

Qu. Tell me inhibition of aggregation reported for CCOCCCNC(=O)C1CCCN(S(=O)(=O)CC)C1 (configuration not stated)
Ans. -6.6

Qu. Tell me inhibition of aggregation reported for Cc1c(C(=O)OCc2ccccc2)[nH]c2c1C(=O)CC(c1ccco1)C2 (configuration not stated)
Ans. -170

Qu. Tell me inhibition of aggregation reported for CCOC(=O)c1c(C)[nH]c(C(=O)CSc2nc3ccccc3o2)c1C
Ans. -23.1

Qu. Tell me inhibition of aggregation reported for CC(c1ccccc1)n1cnc2ccccc21 (configuration not stated)
Ans. 17.1

Qu. Tell me inhibition of aggregation reported for O=C(NCc1ccco1)C(c1ccco1)N(C(=O)Cn1nnc2ccccc21)c1ccc2c(c1)CCC2 (configuration not stated)
Ans. -0.5

Qu. Tell me inhibition of aggregation reported for O=C(O)C1CC=CCC1C(=O)Nc1cc(Cl)ccc1Cl (configuration not stated)
Ans. -1.2

Qu. Tell me inhibition of aggregation reported for CCOC(=O)CN1CC23C=CC(O2)C(C(=O)Nc2ccc(OCC)cc2)C3C1=O (configuration not stated)
Ans. -10.5

Qu. Tell me inhibition of aggregation reported for CC(C)Cn1c(=O)c(C2=NS(=O)(=O)c3ccccc3N2)c(O)c2ccccc21
Ans. 10.3

Qu. Tell me inhibition of aggregation reported for Cc1csc2nc(CNC(=O)c3ccco3)cn12
Ans. -5.9

Qu. Tell me inhibition of aggregation reported for CC(=O)Nc1ccc(S(=O)(=O)NCc2cn3c(C)csc3n2)cc1
Ans. -8.4

Qu. Tell me inhibition of aggregation reported for Cn1c(=O)n(CC(=O)OCc2ccccc2)c(=O)c2c1nc1n2CCCN1C1CCCCC1
Ans. 0.2

Qu. Tell me inhibition of aggregation reported for CC1CCN(C(=O)CN2C(=O)C(C)(C)Oc3ccc(C(=O)NC4CCCC4)cc32)CC1
Ans. -4.6

Qu. Tell me inhibition of aggregation reported for O=c1[nH]c2sc3c(c2c2nncn12)CCCC3
Ans. 13.5

Qu. Tell me inhibition of aggregation reported for Cc1cccc(OCCCC(=O)O)c1
Ans. -12.7

Qu. Tell me inhibition of aggregation reported for CCOC(=O)c1ccc(N2C(=O)CC(NC3CCN(C(=O)c4ccc(F)cc4)CC3)C2=O)cc1 (configuration not stated)
Ans. 7.9

Qu. Tell me inhibition of aggregation reported for Cc1ccc(-c2nc3cc(NC(=O)C(C)C)ccc3o2)cc1C
Ans. -7.4

Qu. Tell me inhibition of aggregation reported for CC1(CC(=O)O)C(=O)N=C2C=CC=CN21 (configuration not stated)
Ans. 17.4

Qu. Tell me inhibition of aggregation reported for O=C(CCC(=O)c1cccs1)NCc1ccccc1
Ans. -5.4

Qu. Tell me inhibition of aggregation reported for O=C(COC(=O)CSc1nnc(-c2ccc(Cl)cc2)o1)NCc1ccc2c(c1)OCO2
Ans. 4.7

Qu. Tell me inhibition of aggregation reported for COc1cccc(-n2c(SC3CCOC3=O)nc3ccccc3c2=O)c1 (configuration not stated)
Ans. -18

Qu. Tell me inhibition of aggregation reported for Clc1ccc2c(c1)[C@H]1OCC[C@H]1[C@@H](c1ccco1)N2
Ans. -3.2

Qu. Tell me inhibition of aggregation reported for CCCc1cc(C(=O)Nc2ccc(C(C)=O)cc2)no1
Ans. 1.1

Qu. Tell me inhibition of aggregation reported for Cc1ccc(-c2noc(CCC(=O)NCC3CCN(Cc4cccc(C)c4)CC3)n2)cc1
Ans. 7.8

Qu. Tell me inhibition of aggregation reported for COc1nc(OC)nc(N2CCC(C(=O)NCc3cccs3)CC2)n1
Ans. -22.8

Qu. Tell me inhibition of aggregation reported for COc1cccc(C(=O)NC2=NCCS2)c1
Ans. 29.5

Qu. Tell me inhibition of aggregation reported for O=C(c1cccc(F)c1)N1CCc2ccccc21
Ans. -1.6

Qu. Tell me inhibition of aggregation reported for CCOC(=O)C1=C(C)NC(C)=C(C(=O)OCC)C1C(=O)OC1CCOC1=O (configuration not stated)
Ans. 5.7
